Biological target: DNA-PK(h) (Homo sapiens)
Assay: Evaluation of inhibitory activity against DNA-PK (HTRF kinase assay, GST-cMyc-p53 substrate)
Assay type: biochemical
Conditions: compound concentration 0.1 μM; read-out: EXP_VALUE(% Inhibition) DNA-PK(h) 0.1 μM
Measured quantity: inhibition at 0.1 µM (%)

C[C@H](Nc1ncnc2[nH]ccc(=O)c12)c1c(Cl)c2cccc(-c3cccc(F)c3Cl)c2c(=O)n1-c1ccccc1: 59
C[C@H](Nc1ncnc2[nH]ccc(=O)c12)c1c(Cl)c2cccc(C3CC3)c2c(=O)n1-c1ccccc1: 92
Cc1ncccc1-c1cccc2c(Cl)c([C@H](C)Nc3ncnc4[nH]ccc(=O)c34)n(-c3ccccc3)c(=O)c12: 91
C[C@H](Nc1ncnc2[nH]ccc(=O)c12)c1c(Br)c2cccc(Cl)c2c(=O)n1-c1ccccc1: 91

1 = C[C@H](Nc1ncnc2[nH]ccc(=O)c12)c1c(Cl)c2cccc(C#Cc3cnn(C)c3)c2c(=O)n1-c1ccccc1
2 = Cc1nc2cc(-c3cccc4c(Cl)c([C@H](C)Nc5ncnc6[nH]ccc(=O)c56)n(-c5ccccc5)c(=O)c34)ccc2[nH]1
Input line: Identify the entry with the larger inhibition at 0.1 µM. Options: 1 and 2 Use the label to indicate which entry you chose.
Output line: 2
